- Test system: KRAS patient-derived spheroids with HUVEC/MSC, viability;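 note: compound exposure lasted seven days before readout; 100% = DMSO vehicle control viability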
- assay-summary: Anticancer human tumor 519858-162-T-J1-PDC patient-derived colon adenocarcinoma cell line growth inhibition [KRAS2]
- condition-notes: second compound 10 µM; first compound 0.01 µM; hits give low values
observed-property: viability, T/C (%)
Your answer is read as %, so omit the unit and give the number.

Query: Which viability, T/C value belongs to CCN1CCN(Cc2ccc(Nc3ncc(F)c(-c4cc(F)c5nc(C)n(C(C)C)c5c4)n3)nc2)CC1 + C=CC(=O)N1CCN(c2nc(=O)n(-c3c(C)ccnc3C(C)C)c3nc(-c4c(O)cccc4F)c(F)cc23)C(C)C1 ?
Result: 97.7

Query: And what about the molecule CN(C)C/C=C/C(=O)Nc1cc2c(Nc3ccc(F)c(Cl)c3)ncnc2cc1O[C@H]1CCOC1 + CC1OCC2(CCN(c3cnc(Sc4ccnc(N)c4Cl)c(N)n3)CC2)C1N ?
Result: 72.9

Query: And what about the molecule CN(C)C/C=C/C(=O)Nc1cc2c(Nc3ccc(F)c(Cl)c3)ncnc2cc1O[C@H]1CCOC1 + COc1cc2nc(C)nc(NC(C)c3cc(N)cc(C(F)(F)F)c3)c2cc1OC1CCOC1 ?
Result: 88.3

Hello, the source for this data is PubChem BioAssay AID1963872, in case you need it.
